Recorded pIC50 values (Cyclin-dependent kinase 9 (Homo sapiens)) are given below.
Numbers only, as −log10 of the molar value.

{"columns": ["compound", "pIC50"],
 "data": [
  ["CN(C)C/C=C/C(=O)Nc1cccc(C(=O)Nc2cccc(Nc3ncc(Cl)c(-c4c[nH]c5ccccc45)n3)c2)c1", 6.87]
]}

List reported pIC50 for each of these compounds:
1. CC(C)c1cnn2c(NCc3ccccc3N(C)C)nc(OC3CCN(C)CC3)nc12
2. CC(C)c1cnn2c(NCc3ccccc3-n3cccn3)nc(OC3CCCNC3)nc12 (configuration not stated)

Resp:
5.13
5.77

---

Provide the reported IC50 of each item.
Molecular target: Cyclin-dependent kinase 2 (Homo sapiens, UniProt P24941)

{"columns": ["molecule", "IC50"],
 "data": [
  ["Clc1cnc(N[C@@H]2CCCNC2)nc1-c1c[nH]c2ccccc12", "> 200 nM"],
  ["Clc1cnc(N[C@H]2CCCNC2)nc1-c1c[nH]c2ccccc12", "> 200 nM"]
]}

# return IC50 for each item in the list
1. CC(C)c1cnn2c(NCc3cccc4c3cnn4C)nc(OC3CCCNC3)nc12 (centres undefined)
2. CC(C)c1cnn2c(NCc3cccc4[nH]ncc34)nc(OC3CCCNC3)nc12 (centres undefined)

Resp:
1: < 50 nM; 2: < 50 nM

Provenance of the data: ChEMBL document CHEMBL4402527
